Reported IC50 values, wild type FGFR-4 (Homo sapiens (Human)).

Use the examples below as a reference point.
Return IC50 for the following molecule: C=CC(=O)N1c2cc(-c3ncc4cc(-c5c(Cl)c(OC)cc(OC)c5Cl)ccc4n3)c(F)cc2OCC1C (stereo not shown) 10 to 100 nM

Return IC50 for the following molecule: C=CC(=O)N1CCCc2ccc(-c3cc4c(cn3)cc(-c3c(Cl)c(OC)cc(OC)c3Cl)c(=O)n4CC)cc21 < 10 nM

Return IC50 for the following molecule: C=CC(=O)Nc1cccc(-c2ncc3cc(-c4c(Cl)c(OC)cc(OC)c4Cl)ccc3n2)c1 > 1000 nM

Others:
Return IC50 for the following molecule: CCn1c(=O)c(-c2c(Cl)c(OC)cc(OC)c2Cl)cc2cnc(-c3cccc(NC(=O)/C=C/CN(C)C)c3)cc21 10 to 100 nM

Return IC50 for the following molecule: C=CC(=O)Nc1ccc(F)c(-c2cc3c(cn2)CN(c2c(Cl)c(OC)cc(OC)c2Cl)C(=O)N3CC)c1 < 10 nM

Return IC50 for the following molecule: C=CC(=O)Nc1ccc(F)c(-c2cc3c(cn2)cc(-c2cc(OC)cc(OC)c2F)c(=O)n3C(C)C)c1 < 10 nM

Return IC50 for the following molecule: C=CC(=O)Nc1cc(OC(C)C)cc(-c2cc3c(cn2)cc(-c2c(Cl)c(OC)cc(OC)c2Cl)c(=O)n3C)c1 10 to 100 nM
